# test_method_notes: Pharmacokinetics and oral bioavailability of D11.3 in male Swiss albino mice (IV, PO, SQ)
# Format: in vivo
# run_parameters: male, Swiss albino, mouse, plasma; IV 1.00 mg/kg
Where a SMILES comes first, the peptide text is derived from it. [ ]: non-standard residue; d: D form. dNMeI = CC[C@@H](C)[C@@H](NC)C(=O)O; NMeL = CN[C@@H](CC(C)C)C(=O)O
readout_kind: Vd (L/kg)

| molecule | unit_name | obs_value |
| --- | --- | --- |
| CC[C@@H](C)[C@H]1NC(=O)[C@H]([C@@H](C)CC)NC(=O)[C@H](CC(C)C)N(C)C(=O)[C@H]2CCCN2C(=O)[C@@H]([C@H](C)CC)NC(=O)[C@@H]([C@H](C)CC)N(C)C(=O)[C@H](CC(C)C)NC(=O)[C@H]2CCCN2C(=O)[C@@H]2CCCN2C(=O)[C@H](C(C)C)NC(=O)[C@H]2CCCN2C1=O [Design D11.3] (cyclo(I[dI][dP]VP[dP]L[dNMeI][dI][dP][NMeL])) | L/kg | 1.12 |

---

# test_method_notes: Pharmacokinetics and oral bioavailability of D8.3.p1 and D10.1 in Balb/C female mice (PO, SQ, IV)
# Assay type: in vivo
# run_parameters: female, Balb/C, mouse, plasma, iv, […], D10.1 IV […], mean n=3; read-out: Volume of distribution during elimination phase VZ
readout_kind: Vd (L/kg)

| compound | readout_kind | unit_name | obs_value |
| --- | --- | --- | --- |
| CC[C@H](C)[C@@H]1NC(=O)[C@@H](CC(C)C)NC(=O)[C@H](CC(C)C)N(C)C(=O)[C@H](Cc2ccccc2)NC(=O)CN(C)C(=O)[C@@H]2CCCN2C(=O)[C@H](C(C)C)NC(=O)[C@H](Cc2ccccc2)N(C)C(=O)[C@H]2CCCN2C(=O)[C@H](CC(C)C)NC1=O [Design D10.1] | Vd | L/kg | 0.32 |

---

# run_parameters: PAMPA
Where a SMILES comes first, the peptide text is derived from it. [ ]: non-standard residue; d: D form. NMeL = CN[C@@H](CC(C)C)C(=O)O; dNMeL = CN[C@H](CC(C)C)C(=O)O; NMeV = CN[C@H](C(=O)O)C(C)C
readout_kind: PAMPA_R3

| molecule | obs_value |
| --- | --- |
| CC[C@H](C)[C@@H]1NC(=O)[C@H]2CCCN2C(=O)[C@H](C(C)C)NC(=O)[C@H](C(C)C)N(C)C(=O)[C@@H](C(C)C)NC(=O)[C@H](C(C)C)NC(=O)[C@H]2CCCN2C(=O)[C@@H]2CCCN2C(=O)[C@H](C)NC(=O)[C@@H](CC(C)C)N(C)C(=O)[C@H]2CCCN2C1=O [Design D11.8] (cyclo(AP[dP]V[dV][NMeV]V[dP]I[dP][dNMeL])) | BQL |
| CC[C@H](C)[C@@H]1NC(=O)[C@@H](CC(C)C)N(C)C(=O)[C@H](CC(C)C)N(C)C(=O)[C@@H](Cc2ccccc2)NC(=O)[C@@H](CC(C)C)N(C)C(=O)[C@H]2CCCN2C(=O)[C@H]2CCCN2C(=O)[C@@H]2CCCN2C(=O)[C@@H](C(C)C)NC(=O)[C@@H]2CCCN2C(=O)[C@H](C)NC1=O [Design D11.11] (cyclo(AP[dV]P[dP][dP][dNMeL][dF][NMeL][dNMeL]I)) | 2.38E-06 |
